I'd appreciate it if you could supply inhibition values for the items below.
Assay: inhibitors of the yeast RAM network, pilot screen, dse1pr::URA3 reporter, 5-FOA selection (AID 869);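 also: 0% = DMSO wells with no growth and 100% = 10 µM 1-NA-PP1 with full growth; RAM network block rescues cells from 5-FOA so hits raise OD615 growth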
Conditions: S. cerevisiae dse1pr::URA3 5-FOA growth, OD615, 2 d; at 10 µM; hits give high values; strain carries analog-sensitive mutant Cbk1 kinase
Answers are plain numbers, in %.

Solved entries (count: 2):
CCN1C(=O)c2ccccc2S(=O)c2ccc(C(=O)N3CCN(C(=O)c4ccco4)CC3)cc21 (configuration not stated) :: 1.33
COc1ccc(N2CCN(C(=O)c3sc4nc(-c5ccc(F)cc5)cn4c3C)CC2)cc1 :: 2.24

# per-item lookup of inhibition; items listed below
1. CN(CC(=O)NC1CCCCCCC1)S(=O)(=O)c1cccc2cccnc12
2. CSCCC(/C(O)=C(\C#N)c1nc2ccccc2[nH]1)N1C(=O)c2ccccc2C1=O (configuration not stated)
3. Cc1cc(Nc2cccc(C)c2C)n2nc(C)nc2n1
4. Cc1cc(C)n(CC(=O)n2c3ccccc3c3ccccc32)n1
5. O=C(OCC(=O)c1cccs1)c1ccc(NC(=O)c2ccco2)cc1

Resp:
[1.26, 2.82, 1.25, 0.155, 0.87]

# per-item lookup of inhibition; items listed below
1. O=S(=O)(c1ccccc1)n1ccc2ccccc21
2. CC(=O)C1C(c2ccc(OC(F)F)cc2)NC(=O)NC1(O)C(F)(F)F (configuration not stated)
3. CCOCCCNC(=O)C(c1ccc(OC)cc1)N(Cc1ccc2c(c1)OCO2)C(=O)CNC(C)=O (configuration not stated)
4. N#CCCN1CCN(S(=O)(=O)c2ccc(S(=O)(=O)NC3CC3)cc2)CC1
5. CCOc1ccc(C2C(C#N)=C(N)SC(N)=C2C#N)cc1OCC

Resp:
0.255
0.31
1.34
0.68
0.96

---

Experiment: Restrictive medium S. cerevisiae growth inhibition, OD615, pilot screen of yeast lifespan reduction project, restrictive growth control (AID 706);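 also: modified DeaD lifespan yeast strain shifted to restrictive glucose medium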
Conditions: OD615, 48 h, at 10 µM, hits give high values
I'd appreciate it if you could supply growth inhibition values for the items below.
Give bare numbers, in %.

Solved entries (count: 5):
Cc1c(C#N)c2ncn(Cc3ccccc3)c(=O)c2n1-c1ccccc1 :: -0.37
CCN(CC)C(=O)c1cc2sc3ccccc3c2s1 :: -2.27
COc1ccc(C(=O)Nc2ccc(S(=O)(=O)N3CCCCC3C)cc2)c(OC)c1OC (stereo unspecified) :: -3.8
COC(=O)c1c(NC(=O)CSc2nnnn2-c2ccccc2)sc2c1CCC(C)C2 (stereo unspecified) :: -21.2
Cc1cc(C)n(-c2ncnc3sc4c(c23)CC(C)CC4)n1 (stereo unspecified) :: 6.4

# per-item lookup of growth inhibition; items listed below
1. CC(=O)NCC(=O)OCC(=O)c1ccc(C)cc1
2. CCn1c2c(c3cc(Cl)ccc31)CCCC2=O
3. O=S(=O)(Nc1ccc2nc(C(F)(F)F)[nH]c2c1)c1ccccc1
4. COc1ccc(-c2nc(CS(=O)CC(=O)N3CCc4ccccc4C3)c(C)o2)cc1 (stereo unspecified)
5. O=C(NC1CCCCCCC1)c1c(O)c2ccccc2[nH]c1=O

Resp:
-5.04
-10.1
-0.635
32.7
8.01

Req: If you can, please state the reported growth inhibition value of COc1ccccc1C1C(C(N)=O)=C(C)Nc2nc(-c3ccccc3Cl)nn21 (stereo unspecified) .
Resp: -4.21

All values here come from PubChem BioAssay.
